Give measured PFU/ml for each item. Keep answers brief.
Test system: Human alphaherpesvirus 2
Test: Antiviral activity against HSV2 in human PBMC assessed as inhibition of viral replication at 20 ug/mL
Type: functional

Input line: Tell me its PFU/ml on Human alphaherpesvirus 2: O=C(NCCOCCO[C@@H]1O[C@H](CO)[C@@H](O[C@H]2O[C@H](CO)[C@@H](O)[C@H](O)[C@H]2O)[C@H](O)[C@H]1O)c1ccc2c(c1)C(=O)c1ccccc1-2
Output line: 53000

Input line: Name the recorded PFU/ml of O=C(OCCCCO[C@H]1O[C@H](CO[C@H]2O[C@H](CO[C@H]3O[C@H](CO)[C@@H](O)[C@H](O)[C@H]3O)[C@@H](O)[C@H](O)[C@H]2O)[C@@H](O)[C@H](O)[C@H]1O)c1cccc2c1-c1ccccc1C2=O , assay system Human alphaherpesvirus 2.
Output line: 70000

Input line: Please look at O=C(NCCCO)c1ccc2c(c1)C(=O)c1ccccc1-2 and tell me its recorded PFU/ml on Human alphaherpesvirus 2.
Output line: 6500

Input line: Send back Human alphaherpesvirus 2 PFU/ml of O=C(NCCOCCO[C@@H]1O[C@H](CO)[C@@H](O)[C@H](O)[C@H]1O)c1ccc2c(c1)C(=O)c1ccccc1-2 only.
Output line: 49000

Input line: Provide the reported PFU/ml (system: Human alphaherpesvirus 2) for O=C(NCCOCCO[C@H]1O[C@H](CO)[C@@H](O)[C@H](O)[C@H]1O)c1ccc2c(c1)C(=O)c1ccccc1-2
Output line: 60000

Input line: Give Human alphaherpesvirus 2 PFU/ml for the following molecule: CC(O)CNC(=O)c1ccc2c(c1)C(=O)c1ccccc1-2 (centres undefined)
Output line: 6000

Input line: Param request: PFU/ml | system Human alphaherpesvirus 2 | item O=C(OCCCCO)c1cccc2c1-c1ccccc1C2=O
Output line: 71000

Input line: Report the value of PFU/ml obtained on Human alphaherpesvirus 2 for O=C(NCCOCCOC1O[C@H](COC2O[C@H](CO)[C@@H](O)[C@H](O)[C@H]2O)[C@@H](O)[C@H](O)[C@H]1O)c1ccc2c(c1)C(=O)c1ccccc1-2 (single isomer, unassigned) .
Output line: 42000

Input line: Check Human alphaherpesvirus 2 data and give PFU/ml for O=C(NCCOCCO)c1ccc2c(c1)C(=O)c1ccccc1-2 .
Output line: 5300

Input line: Write down measured PFU/ml (Human alphaherpesvirus 2) for this molecule. O=C(NCCO)c1ccc2c(c1)C(=O)c1ccccc1-2
Output line: 48000

Input line: Recall the reported PFU/ml of O=C(OCCO)c1cccc2c1-c1ccccc1C2=O on Human alphaherpesvirus 2 and write it down.
Output line: 58000

Input line: Enter measured PFU/ml, system Human alphaherpesvirus 2, for the molecule shown: O=C(OCCCCO[C@@H]1O[C@H](CO)[C@@H](O)[C@H](O)[C@H]1O)c1cccc2c1-c1ccccc1C2=O
Output line: 78000

Input line: Would you please give the reported PFU/ml of O=C(OCCCCO[C@@H]1O[C@H](CO[C@H]2O[C@H](CO)[C@@H](O)[C@H](O)[C@H]2O)[C@@H](O)[C@H](O)[C@H]1O)c1cccc2c1-c1ccccc1C2=O with Human alphaherpesvirus 2?
Output line: 68000

Input line: Provide PFU/ml, recorded with Human alphaherpesvirus 2, of O=C(OCCCO)c1cccc2c1-c1ccccc1C2=O
Output line: 60000
